# Target desc: T1, recombinant human TRAIL R1 (DR4)/Fc chimera (human, UniProt O00220 24-239)
# T1 construct: bought (R&D Systems); not shown: Fc of the bought chimera (R&D Systems)
# T1 sequence: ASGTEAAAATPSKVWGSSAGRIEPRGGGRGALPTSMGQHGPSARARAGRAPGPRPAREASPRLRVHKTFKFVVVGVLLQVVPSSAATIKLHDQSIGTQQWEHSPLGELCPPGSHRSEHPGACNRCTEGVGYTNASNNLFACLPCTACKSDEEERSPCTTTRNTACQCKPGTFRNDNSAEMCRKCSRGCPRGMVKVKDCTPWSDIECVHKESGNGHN
# Test protocol: phage ELISA on DR4/Fc
# Protocol: The remaining overnight culture was used to make a master stock plate by adding 100 μL of 50% glycerol to each well and storing at −80° C. […] On day 3, cultures were spun down and supernatants containing the phage were blocked with 3% milk/PBS for 1 hr at room temperature. […] Non-specific binding was measured using 75-100 ng of human IgG1 Fc per well. […] The ELISA signal was developed using 90 μL TMB substrate mix and then stopped with 90 μL 0.2 M sulfuric acid, then ELISA plates were read at 450 nm. […]
Observable: binding result

Here is how some binders turned out for binding result.
014-40.3A3 (designed binder, on phage) ALQTVCLKGTKVHMKCFLAFTQTKTFHEASEDCISRGGTLSTPQTGSENDALYEYLRQSVGNEAEIWLGLNGFMVGRGWVDMTGARIAYKNWETEITAQPDGGSMWPWENCAVLSGAANGKWFDKRCRDQLPYICQFGIV :: binds
029-62.4F5 (designed binder, on phage) ALQTVCLKGTKVHMKCFLAFTQTKTFHEASEDCISRGGTLSTPQTGSENDALYEYLRQSVGNEAEIWLGLNIQCSPPLWVDMTGARIAYKNWETEITAQPDGGAVQQQENCAVLSGAANGKWFDKRCRDQLPYICQFGIV :: binds
014-40.3B3 (designed binder, on phage) ALQTVCLKGTKVHMKCFLAFTQTKTFHEASEDCISRGGTLSTPQTGSENDALYEYLRQSVGNEAEIWLGLNGYMSGYGWVDMTGARIAYKNWETEITAQPDGGMMARWENCAVLSGAANGKWFDKRCRDQLPYICQFGIV :: binds
064-36.1E1 (designed binder, on phage) ALQTVCLKGTKVHMKCFLAFTQTKTFHEASEDCISRGGTLSTPQTGSENDALYEYLRQSVGNEAEIWLGLNIWPLRFRWVDMTGARIAYKNWETEITAQPDGGFVTRKENCAVLSGAANGKWFDKRCRDQLPYICQFGIV :: binds
064-101.4B10 (designed binder, on phage) ALQTVCLKGTKVHMKCFLAFTQTKTFHEASEDCISRGGTLSTPQTGSENDALYEYLRQSVGNEAEIWLGLNQWVAFWSWVDMTGARIAYKNWETEITAQPDGGSAVSGENCAVLSGAANGKWFDKRCRDQLPYICQFGIV :: binds
064-99.2H5 (designed binder, on phage) ALQTVCLKGTKVHMKCFLAFTQTKTFHEASEDCISRGGTLSTPQTGSENDALYEYLRQSVGNEAEIWLGLNGLLSDWWWVDMTGARIAYKNWETEITAQPDGGGNQSRENCAVLSGAANGKWFDKRCRDQLPYICQFGIV :: binds

Moving on to the next binder.
Find the recorded binding result belonging to 064-36.1G10 (designed binder, on phage) ALQTVCLKGTKVHMKCFLAFTQTKTFHEASEDCISRGGTLSTPQTGSENDALYEYLRQSVGNEAEIWLGLNGYLQGSGWVDMTGARIAYKNWETEITAQPDGGWKTRWENCAVLSGAANGKWFDKRCRDQLPYICQFGIV and report it.
binds
